# Assay Overview: gradient 5% acetonitrile 3 min, to 50% in 2 min, to 85% in 15 min, held 3 min, 100 µL/min
# Condition Details: column: Zorbax Extend-C18 2.1 x 50 mm; eluents: water / acetonitrile, 0.1% formic acid
Measurement Kind: RP-LC retention time (s)

Worked examples follow.
Compound | RP-LC retention time / s
CC(C)NC(=O)N1CCC(OC2CCN(Cc3ccccc3)CC2)CC1 | 564
Cc1ccc(C2=NC3(CCN(C(=O)c4ccc[nH]4)CC3)ON2)cc1 | 747
Cn1cc(-c2ccc(F)cc2)cc1C(=O)N1CCOCC1 | 811

[P] Cc1cccc(NC(=O)CN2CCN(Cc3ccc(F)cc3)C(=O)C2=O)c1C
[Q] COc1ccc(-c2noc(CN3C(=O)COc4cc(C(C)(C)C)ccc43)n2)cc1OC
Challenge: Param pair: P , Q . Output: the one whose RP-LC retention time is numerically greater. Write the label of whichever entry you select.
Response given: Q

[P] O=C(C1CCN(c2ccc(Cl)cc2)C1=O)N1CCN(c2ccccn2)CC1 (stereo not given)
[Q] CCOc1ccccc1-c1noc(Cn2c(=O)n(CC)c(=O)c3ccccc32)n1
Challenge: Hi! Which is lower in terms of RP-LC retention time, the first one P or the second one Q ? Write the label of whichever entry you select.
Response given: P
(P: 634 s, Q: 983 s)

[1] CCOc1ccc(NC(=O)c2oc3ccc(F)cc3c2C)c2cccnc12
[2] c1ccc(-c2noc(-c3cccnc3N3CCN(c4ccccc4)CC3)n2)cc1
Challenge: Hi! Which is lower in terms of RP-LC retention time, the first one 1 or the second one 2 ? Write the label of whichever entry you select.
Response given: 1
(1: 710 s, 2: 1280 s)

Data credit: the METLIN SMRT retention time set (Domingo-Almenara et al. 2019)
